# system_tested: UniProt:Q96P20
# assay_method_text: Human whole blood IL-1β release assay (LPS + nigericin, AlphaLisa)
# Format: cell-based
# Parameters: Plate out 80 μl of whole blood containing 1 μg/ml of LPS; from tissue; host or cells: human whole blood from healthy donors
# measurement_conditions: human whole blood, 1 μg/ml LPS, 10 μM nigericin; IL-1β release; read-out: HWB IC50
Structures can show the parent of a compound that is named as a salt.
readout: IC50

Use these answered entries as a reference point.
compound | readout | measurement
CN1CC2CN(S(=O)(=O)NC(=O)Nc3c4c(cc5c3CCC5)CCC4)CC21 (stereo not shown) [Example 86] | IC50 | < 500 nM
CN1C[C@H]2C[C@@H]1CN2S(=O)(=O)NC(=O)Nc1c2c(cc3c1CCC3)CCC2 [Example 43, potassium salt] | IC50 | < 500 nM
CC(C)N1CC2CCC(C1)N2S(=O)(=O)NC(=O)Nc1c2c(cc3c1CCC3)CCC2 [Example 38, potassium salt] | IC50 | < 1000 nM
CN1CC(NS(=O)(=O)NC(=O)Nc2c3c(cc4c2CCC4)CCC3)C1 [Example 34, potassium salt] | IC50 | < 500 nM
CN1CCC2CCN(S(=O)(=O)NC(=O)Nc3c4c(cc5c3CCC5)CCC4)CC21 (stereo not shown) [Example 98] | IC50 | < 5000 nM

I have 2 compounds here; please give me IC50 for each one.
1. CC(C)n1cc(NS(=O)(=O)NC(=O)Nc2c3c(cc4c2CCC4)CCC3)cn1 [Example 65, potassium salt]
2. CN(C)C1CCN(S(=O)(=O)NC(=O)Nc2c3c(cc4c2CCC4)CCC3)C1 (stereo not shown) [Example 9, potassium salt]

# output
1. < 5000 nM
2. < 500 nM

* * *

# assay_method_text: PK, intravenous administration
# Assay type: in vivo, male Sprague Dawley rats
# measurement_conditions: male, Sprague Dawley, plasma, rat, dose per compound as in Table 3, read-out: Vdss
Counter-ions that a name gives are not always drawn.
# label = met if Vd >= 0.4 L/kg else not met

molecule | class_name
CN(C)CCN(C)S(=O)(=O)NC(=O)Nc1c2c(cc3c1CCC3)CCC2 [Example 6, potassium salt] | not met
COc1cc(-c2ccc3c(c2NC(=O)NS(=O)(=O)N(C)[C@H]2CCN(C)C2)CCC3)ccn1 [Example 111, potassium salt] | met
CC(C)N1CCC(N(C)S(=O)(=O)NC(=O)Nc2c3c(cc4c2CCC4)CCC3)C1 (stereo not shown) [Example 36, potassium salt] | not met
CN1CC[C@@H](N(C)S(=O)(=O)NC(=O)Nc2c3c(cc4c2CCC4)CCC3)C1 [Example 66, potassium salt] | met
COc1cc(-c2ccc3c(c2NC(=O)NS(=O)(=O)N2CC4CCN(C)C4C2)CCC3)ccn1 (stereo not shown) | met

# input Please check the record COc1cc(-c2ccc3c(c2NC(=O)NS(=O)(=O)N(C)[C@@H]2CCN(C)C2)CCC3)ccn1 [Example 110, potassium salt] and state if its Vd is at or above 0.4 L/kg.
# output met

* * *

# assay_method_text: PK, intravenous administration
# Format: in vivo, male Sprague Dawley rats
# measurement_conditions: male, Sprague Dawley, plasma, rat, dose per compound as in Table 3, read-out: Vdss
Structures can show the parent of a compound that is named as a salt.
I'd be grateful if you could share measured Vd for these entries.
Numbers only, in L/kg.

Use these answered entries as a reference point.
compound | Vd / L/kg
CN1CCC2CN(S(=O)(=O)NC(=O)Nc3c4c(cc5c3CCC5)CCC4)CC21 (stereo not drawn) [Example 96, potassium salt] | 0.45
CN1CCC(N(C)S(=O)(=O)NC(=O)Nc2c3c(cc4c2CCC4)CCC3)C1 (stereo not drawn) [Example 11, potassium salt] | 0.59

# input Which Vd is listed for CN(C)CCNS(=O)(=O)NC(=O)Nc1c2c(cc3c1CCC3)CCC2 ?
# output 0.61

* * *

I'd be grateful if you could share measured IC50 for these entries.
# system_tested: NLRP3 (Homo sapiens)
# assay_method_text: THP-1 cells pyroptosis assay (LPS + nigericin, resazurin read-out)
# Assay type: cell-based
# Parameters: Seed THP-1 cells (25,000 cells/well) containing 1.0 μg/ml LPS; host or cells: THP-1 cells
# measurement_conditions: THP-1 cells, 1 μg/ml LPS, 5 μM nigericin; NLRP3 inhibitory activity; read-out: THP IC50
Counter-ions that a name gives are not always drawn.

compound | IC50
CCN(CC)CCN(CC)S(=O)(=O)NC(=O)Nc1c2c(cc3c1CCC3)CCC2 [Example 18, potassium salt] | < 5000 nM

I have 7 compounds here; please give me IC50 for each one.
1. COc1cc(-c2c(C)cc3c(c2NC(=O)NS(=O)(=O)N(C)C)CCC3)ccn1
2. CCN1CCC1CNS(=O)(=O)NC(=O)Nc1c2c(cc3c1CCC3)CCC2 (stereo not drawn) [Example 47, potassium salt]
3. CN1CCC1CNS(=O)(=O)NC(=O)Nc1c2c(cc3c1CCC3)CCC2 (stereo not drawn) [Example 31, potassium salt]
4. CCN1CCN(S(=O)(=O)NC(=O)Nc2c3c(cc4c2CCC4)CCC3)CC1
5. CN(C)CC1CCN(S(=O)(=O)NC(=O)Nc2c3c(cc4c2CCC4)CCC3)C1 (stereo not drawn) [Example 68, potassium salt]
6. CN(C)CCNS(=O)(=O)NC(=O)Nc1c2c(cc3c1CCC3)CCC2
7. CC(C)N(CCN(C)C)S(=O)(=O)NC(=O)Nc1c2c(cc3c1CCC3)CCC2 [Example 83, potassium salt]

# output
["< 500 nM", "< 1000 nM", "< 500 nM", "< 5000 nM", "< 500 nM", "< 1000 nM", "< 1000 nM"]

I have 6 compounds here; please give me IC50 for each one.
1. CN1CCC[C@H]1CN(C)S(=O)(=O)NC(=O)Nc1c2c(cc3c1CCC3)CCC2 [Example 115, sodium salt]
2. Cc1nc(C(C)C)c(NC(=O)NS(=O)(=O)N(C)C2CCN(C)C2)n1-c1ccncc1 (stereo not drawn)
3. COc1cc(-c2ccc3c(c2NC(=O)NS(=O)(=O)N(C)[C@H]2CCN(C)C2)CCC3)ccn1 [Example 111, potassium salt]
4. CC(C)c1cc(F)cc(-c2ccncc2)c1NC(=O)NS(=O)(=O)N(C)C1CCN(C)C1 (stereo not drawn)
5. CN1CCCCC1CN(C)S(=O)(=O)NC(=O)Nc1c2c(cc3c1CCC3)CCC2 (stereo not drawn) [Example 22, potassium salt]
6. COc1cc(-c2ccc3c(c2NC(=O)NS(=O)(=O)N(C)[C@@H]2CCN(C)C2)CCC3)ccn1 [Example 110, potassium salt]

# output
1: < 500 nM; 2: < 10000 nM; 3: < 500 nM; 4: < 500 nM; 5: < 500 nM; 6: < 500 nM

# input Which IC50 is listed for CC(CNS(=O)(=O)NC(=O)Nc1c2c(cc3c1CCC3)CCC2)N(C)C (stereo not drawn) [Example 30, potassium salt] ?
# output < 1000 nM

* * *

# assay_method_text: PK, oral administration
# Assay type: in vivo, male Sprague Dawley rats
# measurement_conditions: male, Sprague Dawley, plasma, rat, 3 mg/kg
Where a name gives a salt, the structure may show the parent alone.
I'd be grateful if you could share measured bioavailability for these entries.
Give bare numbers, in %.

compound | readout | measurement
COc1cc(-c2ccc3c(c2NC(=O)NS(=O)(=O)N(C)[C@@H]2CCN(C)C2)CCC3)ccn1 [Example 110, potassium salt] | bioavailability | 41

# input Which bioavailability is listed for COc1cc(-c2ccc3c(c2NC(=O)NS(=O)(=O)N(C)[C@H]2CCN(C)C2)CCC3)ccn1 [Example 111, potassium salt] ?
# output 47

* * *

# system_tested: NLRP3 (Homo sapiens, UniProt Q96P20)
# Sequence (Q96P20 whole entry): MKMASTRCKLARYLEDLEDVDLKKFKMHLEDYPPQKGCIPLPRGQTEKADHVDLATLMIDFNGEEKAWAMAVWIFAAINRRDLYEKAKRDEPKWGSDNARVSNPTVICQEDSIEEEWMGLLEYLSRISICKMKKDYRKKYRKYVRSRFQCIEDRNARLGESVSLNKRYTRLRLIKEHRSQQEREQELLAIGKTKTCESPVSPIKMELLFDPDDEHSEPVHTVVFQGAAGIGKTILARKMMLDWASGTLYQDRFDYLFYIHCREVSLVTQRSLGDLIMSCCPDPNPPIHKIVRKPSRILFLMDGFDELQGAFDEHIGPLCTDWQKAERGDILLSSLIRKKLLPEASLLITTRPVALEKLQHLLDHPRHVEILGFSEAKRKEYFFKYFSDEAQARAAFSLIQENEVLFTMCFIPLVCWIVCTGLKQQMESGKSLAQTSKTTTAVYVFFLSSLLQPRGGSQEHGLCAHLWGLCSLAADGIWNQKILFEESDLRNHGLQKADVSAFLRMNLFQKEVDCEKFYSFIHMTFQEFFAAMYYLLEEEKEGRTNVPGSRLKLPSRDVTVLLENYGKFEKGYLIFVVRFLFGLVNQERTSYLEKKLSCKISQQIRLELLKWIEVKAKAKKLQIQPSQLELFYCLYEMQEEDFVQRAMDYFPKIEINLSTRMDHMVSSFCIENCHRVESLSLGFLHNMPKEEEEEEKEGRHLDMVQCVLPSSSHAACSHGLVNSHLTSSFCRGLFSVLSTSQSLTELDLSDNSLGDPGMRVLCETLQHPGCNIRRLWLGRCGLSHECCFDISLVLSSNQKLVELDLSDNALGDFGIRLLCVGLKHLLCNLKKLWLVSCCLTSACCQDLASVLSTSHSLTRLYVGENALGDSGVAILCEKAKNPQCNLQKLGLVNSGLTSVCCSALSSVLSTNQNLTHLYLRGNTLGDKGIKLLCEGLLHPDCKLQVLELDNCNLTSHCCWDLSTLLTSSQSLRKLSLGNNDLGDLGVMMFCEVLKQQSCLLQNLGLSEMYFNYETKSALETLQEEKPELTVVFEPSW
# assay_method_text: Human whole blood IL-1β release assay (LPS + nigericin, AlphaLisa)
# Assay type: cell-based
# Parameters: Plate out 80 μl of whole blood containing 1 μg/ml of LPS; from tissue; host or cells: human whole blood from healthy donors
# measurement_conditions: human whole blood, 1 μg/ml LPS, 10 μM nigericin; IL-1β release; read-out: HWB IC50
Counter-ions that a name gives are not always drawn.
readout: IC50

compound | measurement
CC(C)(C)NCCNS(=O)(=O)NC(=O)Nc1c2c(cc3c1CCC3)CCC2 [Example 71, potassium salt] | < 1000 nM
CC(C)c1cc(F)cc(-c2ccncc2)c1NC(=O)NS(=O)(=O)N(C)C1CCN(C)C1 (stereo not shown) | < 500 nM
CN1CC2(CCN2S(=O)(=O)NC(=O)Nc2c3c(cc4c2CCC4)CCC3)C1 [Example 91, potassium salt] | < 5000 nM
CN(C)CCN(C)S(=O)(=O)NC(=O)Nc1c2c(cc3c1CCC3)CCC2 [Example 6, potassium salt] | < 500 nM
CN1CCC[C@H]1CN(C)S(=O)(=O)NC(=O)Nc1c2c(cc3c1CCC3)CCC2 [Example 115, sodium salt] | < 1000 nM
CCN(CC)CCNS(=O)(=O)NC(=O)Nc1c2c(cc3c1CCC3)CCC2 [Example 40, potassium salt] | < 500 nM

Field: next compound
# input Which IC50 is listed for CN1C[C@@H]2CN(S(=O)(=O)NC(=O)Nc3c4c(cc5c3CCC5)CCC4)C[C@@H]21 [Example 93, potassium salt] ?
# output < 500 nM
